# target system: UniProt:P24941

[
  {
    "compound": "CC(=O)c1c(C)c2cnc(NC3CCN(S(C)(=O)=O)CC3)nc2n(C2CCCC2)c1=O",
    "Ki": "5.9 nM"
  }
]

###

# target system: Cyclin-dependent kinase 13 (Homo sapiens)
# Sequence (Q14004 whole entry): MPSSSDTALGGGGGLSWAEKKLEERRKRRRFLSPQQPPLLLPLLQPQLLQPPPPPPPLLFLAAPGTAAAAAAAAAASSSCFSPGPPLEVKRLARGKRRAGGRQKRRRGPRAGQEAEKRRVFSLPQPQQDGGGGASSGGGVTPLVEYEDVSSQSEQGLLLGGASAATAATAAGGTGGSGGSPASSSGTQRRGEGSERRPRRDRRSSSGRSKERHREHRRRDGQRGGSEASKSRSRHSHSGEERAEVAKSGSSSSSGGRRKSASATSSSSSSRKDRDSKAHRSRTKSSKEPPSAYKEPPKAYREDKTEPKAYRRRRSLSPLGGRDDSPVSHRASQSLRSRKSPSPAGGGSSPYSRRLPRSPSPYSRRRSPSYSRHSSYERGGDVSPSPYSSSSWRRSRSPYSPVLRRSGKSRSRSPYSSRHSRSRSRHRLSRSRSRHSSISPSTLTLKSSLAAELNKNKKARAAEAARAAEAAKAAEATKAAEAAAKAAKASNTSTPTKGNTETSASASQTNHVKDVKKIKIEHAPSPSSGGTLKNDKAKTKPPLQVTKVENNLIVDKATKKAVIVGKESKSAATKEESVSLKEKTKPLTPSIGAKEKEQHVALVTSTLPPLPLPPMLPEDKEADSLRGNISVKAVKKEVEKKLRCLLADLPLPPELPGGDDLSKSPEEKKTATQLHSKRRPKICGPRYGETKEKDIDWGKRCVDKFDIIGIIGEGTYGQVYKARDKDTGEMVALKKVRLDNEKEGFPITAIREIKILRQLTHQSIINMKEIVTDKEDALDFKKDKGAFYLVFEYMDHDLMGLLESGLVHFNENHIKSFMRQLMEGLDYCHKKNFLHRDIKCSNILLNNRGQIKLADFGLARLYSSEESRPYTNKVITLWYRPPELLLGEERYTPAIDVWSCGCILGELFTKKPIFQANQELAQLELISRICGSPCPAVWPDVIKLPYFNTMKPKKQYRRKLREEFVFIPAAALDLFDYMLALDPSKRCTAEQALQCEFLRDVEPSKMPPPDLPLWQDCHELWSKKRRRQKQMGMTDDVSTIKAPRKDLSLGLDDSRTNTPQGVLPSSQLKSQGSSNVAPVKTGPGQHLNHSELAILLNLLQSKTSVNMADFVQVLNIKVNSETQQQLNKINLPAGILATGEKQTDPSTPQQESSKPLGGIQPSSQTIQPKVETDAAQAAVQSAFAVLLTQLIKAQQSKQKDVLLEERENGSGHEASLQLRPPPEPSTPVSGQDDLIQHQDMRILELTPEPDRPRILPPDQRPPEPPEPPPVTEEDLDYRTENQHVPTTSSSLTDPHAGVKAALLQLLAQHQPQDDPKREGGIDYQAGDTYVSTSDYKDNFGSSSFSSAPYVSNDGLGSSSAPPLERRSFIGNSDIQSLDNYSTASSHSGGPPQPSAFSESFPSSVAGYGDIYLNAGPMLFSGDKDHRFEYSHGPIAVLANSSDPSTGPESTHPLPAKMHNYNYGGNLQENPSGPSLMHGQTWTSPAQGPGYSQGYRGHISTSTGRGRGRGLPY
quantity name: IC50

[
  {
    "compound": "CN(C)C/C=C/C(=O)Nc1ccc(C(=O)Nc2cccc(Nc3ncc(Cl)c(-c4c[nH]c5ccccc45)n3)c2)cc1",
    "target system": "Cyclin-dependent kinase 13 (Homo sapiens)",
    "experimental value": "620 nM"
  }
]

###

# target system: Cyclin-dependent kinase 2 (Homo sapiens, UniProt P24941)

[
  {
    "compound": "Cn1cc(-n2cnc3c(NCc4nc5cc(Cl)c(Cl)cc5[nH]4)nc(N4CCOCC4)nc32)cn1",
    "IC50": "> 10 µM"
  }
]

###

# target system: Cyclin-dependent kinase 6 (Homo sapiens)
# Sequence (Q00534 whole entry): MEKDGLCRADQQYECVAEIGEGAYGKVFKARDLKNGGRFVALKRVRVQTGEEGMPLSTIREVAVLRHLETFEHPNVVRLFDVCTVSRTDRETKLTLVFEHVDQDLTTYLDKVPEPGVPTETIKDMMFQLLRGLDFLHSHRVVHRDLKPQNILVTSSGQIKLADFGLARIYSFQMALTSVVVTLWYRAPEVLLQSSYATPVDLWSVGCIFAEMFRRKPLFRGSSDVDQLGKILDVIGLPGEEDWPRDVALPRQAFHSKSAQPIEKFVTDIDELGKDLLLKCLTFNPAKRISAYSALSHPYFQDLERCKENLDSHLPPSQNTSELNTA
# test details: Binding affinity to CDK6 (unknown origin) assessed as inhibition constant

[
  {
    "compound": "CC(=O)c1c(C)c2cnc(NC3CCN(S(C)(=O)=O)CC3)nc2n(C2CCCC2)c1=O",
    "units": "nM",
    "Ki": 0.2
  }
]

###

pIC50: −log10 of the molar value.
Entries below carry reported pIC50 on Cyclin-dependent kinase 9 (Homo sapiens, UniProt P50750).
Sequence (P50750 whole entry): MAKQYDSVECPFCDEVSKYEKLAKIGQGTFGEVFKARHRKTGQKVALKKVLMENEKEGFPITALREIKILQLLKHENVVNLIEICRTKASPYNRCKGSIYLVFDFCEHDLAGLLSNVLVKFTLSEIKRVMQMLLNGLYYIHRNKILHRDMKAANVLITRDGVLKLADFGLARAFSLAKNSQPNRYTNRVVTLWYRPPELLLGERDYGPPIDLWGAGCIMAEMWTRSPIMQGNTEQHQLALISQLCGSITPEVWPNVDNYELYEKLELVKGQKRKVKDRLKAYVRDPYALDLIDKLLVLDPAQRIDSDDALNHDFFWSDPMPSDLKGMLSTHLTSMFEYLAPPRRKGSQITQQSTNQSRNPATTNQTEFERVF

[
  {
    "compound": "N[C@H]1CCN(c2c3c(nc4ccc(-c5ccnc(NC(=O)C6CC6)c5)cc24)CCCC3)C1",
    "pIC50": 8.70
  },
  {
    "compound": "N[C@H]1CCN(c2c3c(nc4ccc(-c5ccncc5)cc24)CCCC3)C1",
    "pIC50": 8.10
  }
]

###

# target system: UniProt P50613
# Sequence (P50613 whole entry): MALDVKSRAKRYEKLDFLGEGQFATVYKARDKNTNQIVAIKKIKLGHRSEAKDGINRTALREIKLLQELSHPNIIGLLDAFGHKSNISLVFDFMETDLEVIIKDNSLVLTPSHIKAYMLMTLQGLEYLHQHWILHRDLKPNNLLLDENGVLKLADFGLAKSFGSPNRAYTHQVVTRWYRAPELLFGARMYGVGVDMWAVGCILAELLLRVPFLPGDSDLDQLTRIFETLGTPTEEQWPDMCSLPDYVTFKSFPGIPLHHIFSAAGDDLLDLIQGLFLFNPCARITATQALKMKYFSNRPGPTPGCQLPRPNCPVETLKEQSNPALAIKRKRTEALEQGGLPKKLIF

[
  {
    "compound": "CN(C)C/C=C/C(=O)Nc1ccc(C(=O)N[C@@]2(C)CCC[C@@H](Nc3ncc(Cl)c(-c4c[nH]c5ccccc45)n3)C2)nc1",
    "units": "nM",
    "IC50": 80
  }
]

###

# target system: Cyclin-dependent kinase 1 (Homo sapiens, UniProt P06493)
# Sequence (P06493 whole entry): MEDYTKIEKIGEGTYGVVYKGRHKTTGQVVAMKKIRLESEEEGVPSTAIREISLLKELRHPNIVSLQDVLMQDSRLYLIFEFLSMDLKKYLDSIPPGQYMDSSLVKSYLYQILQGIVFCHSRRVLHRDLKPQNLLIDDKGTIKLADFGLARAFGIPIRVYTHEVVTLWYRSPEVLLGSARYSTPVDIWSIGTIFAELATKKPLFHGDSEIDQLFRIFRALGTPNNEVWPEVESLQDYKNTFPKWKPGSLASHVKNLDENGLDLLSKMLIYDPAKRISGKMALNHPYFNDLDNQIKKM

[
  {
    "compound": "Cn1cc(-n2cnc3c(NCc4nc5cc(Cl)c(Cl)cc5[nH]4)nc(N4CCOCC4)nc32)cn1",
    "IC50": "< 10 µM"
  }
]

###

Heads up, these compounds all have EC50 values measured for CDK12/Cyclin K (Homo sapiens, UniProt Q9NYV4).

[
  {
    "compound": "CC(C)n1cnc2c(NCc3nc4cc(Cl)c(Cl)cc4[nH]3)nc(N3CCOCC3)nc21",
    "EC50, nM": 9
  },
  {
    "compound": "CC(C)c1nn(-c2c(Cl)cccc2Cl)c2nc(Cc3ccc(OCCO)cc3)[nH]c(=O)c12",
    "EC50, nM": 12
  }
]

###

# target system: Cyclin-dependent kinase 4 (Homo sapiens, UniProt P11802)
# Sequence (P11802 whole entry): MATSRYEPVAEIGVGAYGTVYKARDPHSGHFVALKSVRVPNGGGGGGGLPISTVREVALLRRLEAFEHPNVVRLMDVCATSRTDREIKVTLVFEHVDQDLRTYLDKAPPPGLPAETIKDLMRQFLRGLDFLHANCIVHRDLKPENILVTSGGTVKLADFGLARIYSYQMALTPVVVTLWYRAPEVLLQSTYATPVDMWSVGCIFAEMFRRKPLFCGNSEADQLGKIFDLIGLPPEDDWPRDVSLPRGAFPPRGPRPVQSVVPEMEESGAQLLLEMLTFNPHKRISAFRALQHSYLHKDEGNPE
pIC50: −log10 of the molar value.

[
  {
    "compound": "Cn1cc(-n2cnc3c(NCc4nc5cc(Cl)c(Cl)cc5[nH]4)nc(N4CCOCC4)nc32)cn1",
    "target system": "Cyclin-dependent kinase 4 (Homo sapiens, UniProt P11802)",
    "pIC50": "< 5.00"
  }
]

Attribution: ChEMBL document CHEMBL5579822
